target: SMYD3 (Homo sapiens (Human), UniProt Q9H7B4); test: SMYD3 biochemical assay (SMYD3 enzyme assay on MEKK2 protein substrate, 3H-SAM scintillation proximity assay); conditions: read-out: SMYD3 Biochem IC50
Sequence (Q9H7B4 whole entry): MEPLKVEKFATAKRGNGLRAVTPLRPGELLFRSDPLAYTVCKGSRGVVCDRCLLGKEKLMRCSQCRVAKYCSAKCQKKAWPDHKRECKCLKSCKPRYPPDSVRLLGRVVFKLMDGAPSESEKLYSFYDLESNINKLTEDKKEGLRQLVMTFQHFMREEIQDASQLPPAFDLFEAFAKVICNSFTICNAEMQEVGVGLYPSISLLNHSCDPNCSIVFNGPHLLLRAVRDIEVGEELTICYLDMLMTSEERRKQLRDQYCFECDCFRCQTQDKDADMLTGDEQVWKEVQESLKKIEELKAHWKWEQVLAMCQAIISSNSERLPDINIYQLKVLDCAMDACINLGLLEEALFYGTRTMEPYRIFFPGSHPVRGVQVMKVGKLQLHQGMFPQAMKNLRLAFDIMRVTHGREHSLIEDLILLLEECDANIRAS
Would you kindly list IC50 for each of these compounds?

compound "Cc1cc(C)c(C(=O)N[C@H]2CC[C@H](N)CC2)c(=O)[nH]1" , IC50 observed: > 100 µM

IC50 measured on "CC(C)(CNC(=O)CCN)CNS(=O)(=O)c1ccc2c(c1)CC(=O)N2" = 18.3 µM

Sure, the documented IC50 for CC(NC(=O)c1cnccn1)C1CCN(C(=O)[C@H](C)N)CC1 (some centres unmarked) is > 100 µM

For record "NCCC(=O)N[C@H]1CC[C@H](NC(=O)c2cnccn2)CC1" the listed IC50 is 37.4 µM

Item: Cc1cccc(Cn2nc(C(C)(C)C)cc2C(=O)NC(C)C2CCN(C(=O)[C@H](C)N)CC2)c1 (some centres unmarked) | IC50: > 100 µM

Given item "NCCC(=O)N[C@H]1CC[C@H](NC(=O)c2ccc3c(c2)C(=O)C(=O)N3)CC1" , the value recorded as its IC50 is 5.38 µM

According to the records, this compound "Cn1c(C(=O)N[C@H]2CC[C@H](NC(=O)CCN)CC2)cc2ccccc21" displays IC50 of > 100 µM

The measured IC50 associated with "Cn1ccnc1C(=O)N[C@H]1CC[C@H](N)CC1" reads > 100 µM

Attribution: patent US10266526B2
